Assay: Pharmacokinetic comparison in Wistar rats after oral administration
Details: both, Wistar, rat, plasma, po, 25 mg/kg
property: MRT inf (h)

{"compound": "CCCSc1ccc2nc(NC(=O)OC)[nH]c2c1 [ABZ, Albendazole]", "property": "MRT inf", "result": 9.19}

* * *

Experiment: Pharmacokinetic comparison in Wistar rats after oral administration
Settings: both, Wistar, rat, plasma, po, 25 mg/kg

{"moleculeSmiles": "CCCSc1ccc2nc(NC(=O)OC)[nH]c2c1", "AUC(0-inf)": "374 ng·h/mL"}

* * *

Test: Pharmacokinetic comparison in Wistar rats after oral administration
Settings: both, Wistar, rat, plasma, po, 25 mg/kg

{"moleculeSmiles": "CCCSc1ccc2nc(NC(=O)OC)[nH]c2c1", "MRT last, h": 7.07}
